Target: Vitamin D3 receptor (Homo sapiens) (UniProt P11473)
Sequence (P11473 whole entry, looked up): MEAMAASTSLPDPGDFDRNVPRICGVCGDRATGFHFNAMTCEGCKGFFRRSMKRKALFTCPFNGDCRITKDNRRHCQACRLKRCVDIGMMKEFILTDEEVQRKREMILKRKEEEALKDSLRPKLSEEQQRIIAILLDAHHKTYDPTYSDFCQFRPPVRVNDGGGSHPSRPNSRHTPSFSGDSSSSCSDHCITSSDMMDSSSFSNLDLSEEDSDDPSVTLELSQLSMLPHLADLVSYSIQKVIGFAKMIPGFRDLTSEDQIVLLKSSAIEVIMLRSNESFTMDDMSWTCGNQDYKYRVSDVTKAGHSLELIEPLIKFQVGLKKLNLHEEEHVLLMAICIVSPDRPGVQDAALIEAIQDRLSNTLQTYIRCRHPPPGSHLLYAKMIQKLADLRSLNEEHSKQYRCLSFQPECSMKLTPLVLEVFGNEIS
Assay: Inhibitors of the vitamin D receptor (VDR): qHTS; further: on the % scale 0 is the no-effect control and ±100 the full control effect
Conditions: VDR-SRC2-3 peptide fluorescence polarization, 2 h; hits give low values
The campaign covered roughly 400,000 compounds. About 3,700 (0.93%) were called active. Not shown: some 3% with an inconclusive outcome. Only a selection was taken, and actives are over-represented in it overall.
measurementType: max response, negative = inhibition (%)
Write it as a number; the unit % goes unstated.

# structureNotation, result
records = [
    ("CCc1nn(CC(=O)N2CCN(c3ccc(Cl)cc3)CC2)c(=O)c2cc3occc3n12", 22.3),
]

Moving on to the next molecule.
*Q* Look at this molecule and give its reported max response, negative = inhibition. `O=C(/C=C/NNC(=O)c1cccc(Br)c1)c1ccccc1`
*A* 0
